Hi there, I'd appreciate the recorded pIC50 for every entry that follows.
target: human GSK-3β (Homo sapiens (Human)); assay: GSK-3β LanthaScreen TR-FRET Eu Kinase binding and displacement assay; details: compounds 16 to 41, LanthaScreen TR-FRET binding and displacement assay, five concentrations 100 μM to 10 nM
Sequence (P49841 whole entry): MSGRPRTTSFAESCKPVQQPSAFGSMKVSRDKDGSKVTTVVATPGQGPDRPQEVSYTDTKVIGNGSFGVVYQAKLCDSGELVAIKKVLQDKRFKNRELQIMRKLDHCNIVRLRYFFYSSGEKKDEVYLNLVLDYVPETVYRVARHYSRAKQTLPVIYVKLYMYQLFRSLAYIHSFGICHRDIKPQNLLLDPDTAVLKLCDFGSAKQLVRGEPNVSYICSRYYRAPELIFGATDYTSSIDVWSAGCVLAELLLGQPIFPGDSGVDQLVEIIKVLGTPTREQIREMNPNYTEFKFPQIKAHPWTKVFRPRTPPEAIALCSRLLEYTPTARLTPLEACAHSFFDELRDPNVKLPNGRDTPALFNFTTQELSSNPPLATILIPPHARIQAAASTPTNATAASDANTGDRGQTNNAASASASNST
One number for each entry, as −log10 of the molar value.

O=C(O)CN1CCC(CNC(=O)c2n[nH]c3ccc(C4CCCCC4)cc23)CC1
5.97
CC#CC(=O)NCCCN1CCC(CNC(=O)c2n[nH]c3ccc(OC)cc23)CC1
6.06
O=C(O)CN1CCC(CNC(=O)c2n[nH]c3ccc(-c4cccc(F)c4F)cc23)CC1
7.52

Fill in pIC50 for each of the 4 molecules listed.
1. O=C(O)CN1CCC(CNC(=O)c2n[nH]c3ccc(-c4cccc(F)c4)cc23)CC1 [Compound 28, acetic acid hydrate]
2. C/C=C/C(=O)NCCCN1CCC(CNC(=O)c2n[nH]c3ccc(OC)cc23)CC1
3. O=C(O)CN1CCC(CNC(=O)c2n[nH]c3ccc(C4=CCOCC4)cc23)CC1
4. CCC(=O)NCCCN1CCC(CNC(=O)c2n[nH]c3ccc(OC)cc23)CC1

Marked response:
6.96
6.11
5.98
6.02
